- Tested on: KLEBSIELLA PNEUMONIAE ATCC 8045
- assay explanation: In vitro antibacterial activity, MIC, BHI agar dilution
- Assay type: cell-based
- condition info: K. pneumoniae ATCC 8045, unit assumed
readout kind: MIC

| smiles | target | value measured |
| --- | --- | --- |
| CC[C@H]1OC(=O)[C@H](C)C(=O)[C@H](C)[C@@H](O[C@@H]2O[C@H](C)C[C@H](N(C)C)[C@H]2O)[C@](C)(OC)C[C@@H](C)C2=N[C@H](COCc3ccc(F)cc3)CN3C(=O)O[C@@]1(C)[C@H]3[C@H]2C | KLEBSIELLA PNEUMONIAE ATCC 8045 | > 100 µg/mL |
| CC[C@H]1OC(=O)[C@H](C)C(=O)[C@H](C)[C@@H](O[C@@H]2O[C@H](C)C[C@H](N(C)C)[C@H]2O)[C@](C)(OC)C[C@@H](C)C2=N[C@@H](Cc3ccccc3)CN3C(=O)O[C@@]1(C)[C@H]3[C@H]2C | KLEBSIELLA PNEUMONIAE ATCC 8045 | > 100 µg/mL |
| CC[C@H]1OC(=O)[C@H](C)C(=O)[C@H](C)[C@@H](O[C@@H]2O[C@H](C)C[C@H](N(C)C)[C@H]2O)[C@](C)(OC)C[C@@H](C)C2=N[C@H](COCc3ccc(Br)cc3)CN3C(=O)O[C@@]1(C)[C@H]3[C@H]2C | KLEBSIELLA PNEUMONIAE ATCC 8045 | > 100 µg/mL |

----------
- System: KLEBSIELLA PNEUMONIAE ATCC 8045
- assay explanation: In vitro antibacterial activity, MIC, BHI agar dilution
- Format: cell-based
- condition info: K. pneumoniae ATCC 8045, unit assumed
Reported MIC values are given for each entry in this list.

| compound | MIC |
| --- | --- |
| CC[C@H]1OC(=O)[C@H](C)C(=O)[C@H](C)[C@@H](O[C@@H]2O[C@H](C)C[C@H](N(C)C)[C@H]2O)[C@](C)(OC)C[C@@H](C)C2=NC3CN(CCc4cccc([N+](=O)[O-])c4)CC3N3C(=O)O[C@@]1(C)[C@H]3[C@H]2C (stereo partly drawn) | > 100 µg/mL |
| CC[C@H]1OC(=O)[C@H](C)C(=O)[C@H](C)[C@@H](O[C@@H]2O[C@H](C)C[C@H](N(C)C)[C@H]2O)[C@](C)(OC)C[C@@H](C)C2=N[C@@H]3CN(CCc4ccccc4)C[C@@H]3N3C(=O)O[C@@]1(C)[C@H]3[C@H]2C | 100 µg/mL |
| CC[C@H]1OC(=O)[C@H](C)C(=O)[C@H](C)[C@@H](O[C@@H]2O[C@H](C)C[C@H](N(C)C)[C@H]2O)[C@](C)(OC)C[C@@H](C)C2=NC3CN(C(C)=O)CC3N3C(=O)O[C@@]1(C)[C@H]3[C@H]2C (stereo partly drawn) | > 100 µg/mL |
| CC[C@H]1OC(=O)[C@H](C)C(=O)[C@H](C)[C@@H](O[C@@H]2O[C@H](C)C[C@H](N(C)C)[C@H]2O)[C@](C)(OC)C[C@@H](C)C2=N[C@@H](C)[C@H](C)N3C(=O)O[C@@]1(C)[C@H]3[C@H]2C | 12.5 µg/mL |
| CC[C@H]1OC(=O)[C@H](C)C(=O)[C@H](C)[C@@H](O[C@@H]2O[C@H](C)C[C@H](N(C)C)[C@H]2O)[C@](C)(OC)C[C@@H](C)C2=N[C@H](COCc3ccccc3)CN3C(=O)O[C@@]1(C)[C@H]3[C@H]2C | > 100 µg/mL |
| CC[C@H]1OC(=O)[C@H](C)C(=O)[C@H](C)[C@@H](O[C@@H]2O[C@H](C)C[C@H](N(C)C)[C@H]2O)[C@](C)(OC)C[C@@H](C)C2=N[C@H](COCc3ccc(Cl)cc3)CN3C(=O)O[C@@]1(C)[C@H]3[C@H]2C | > 100 µg/mL |
